Values compiled from ChEMBL document CHEMBL1201862.

Documented GI50 across a set of compounds
- Tested on: 786-0
- protocol: NCI tumour cell line growth inhibition, 48 h
Calls of active or inactive are those of the source. No stated cut-off is given here; in the data, active = GI50 up to about 1.1 µM and inactive = higher.

{"columns": ["compound", "GI50"],
 "data": [
  ["CSc1nc(SC)c2c(CO)c(Br)n(Cc3ccccc3)c2n1", "18.7 µM (inactive)"],
  ["Cc1cc(OCc2nnc3n2N=C(c2cc(F)c(Cl)cc2Cl)/C(=C/c2ccc(Cl)cc2)S3)ccc1Cl", "28.1 µM (inactive)"],
  ["CCOc1ccccc1/C=C1\\NC(=O)N(/C=C2\\C(=O)Oc3ccccc3C2=O)C1=O", "50.9 µM (inactive)"],
  ["CCOC(=O)NC(Nc1ccc(OC(F)(F)F)cc1)(C(F)(F)F)C(F)(F)F", "> 100 µM (inactive)"],
  ["COC(=O)[C@@]12C3=NO[C@]1(C(=O)OC)C(O[Si](C)(C)C(C)(C)C)[C@H]1OC(C)(C)O[C@H]1[C@@H]2C(OCc1ccccc1)CC3 (stereo not given in full)", "70.5 µM (inactive)"],
  ["C=C1C(=O)OC2C3C(=C)[C@@H](OC(C)=O)CC3C(C)=CC(OC(=O)C(C)(OC(C)=O)C(C)OC(C)=O)[C@@H]12 (stereo not given in full)", "16.6 µM (inactive)"],
  ["O=c1cc(C(F)(F)F)c2cc3c(cc2o1)NCCC3", "35.2 µM (inactive)"],
  ["CSc1ccc(C2OC(=O)c3ccccc32)c2ccccc12 (stereo not given)", "> 100 µM (inactive)"],
  ["O=C(c1ccccc1)C1CCCCN1C(=O)c1ccccc1 (stereo not given)", "> 100 µM (inactive)"],
  ["COc1cc(/C=C/c2ccc(S(N)(=O)=O)cc2)cc(OC)c1", "21.5 µM (inactive)"]
]}

----------
- Tested on: KM12
- protocol: NCI tumour cell line growth inhibition, 48 h
Calls of active or inactive are those of the source. Rule as the data show it: active = GI50 up to about 1.1 µM and inactive = higher.
quantityKind: GI50

{"columns": ["molecule", "quantityKind", "measuredValue"],
 "data": [
  ["CSC1=C(C(=O)Nc2ccc(C)cc2)C(N)=NC1=O", "GI50", "> 100 µM (inactive)"],
  ["C/C(=N/NC(=S)N1CCCCCC1)c1cccc(/C(C)=N\\NC(=S)N2CCCCCC2)n1", "GI50", "1.63 µM (inactive)"],
  ["O=C1CSC(c2cccc([N+](=O)[O-])c2)N1c1ccc(-n2c(-c3ccccc3)nc3ccccc3c2=O)cc1 (stereo not drawn)", "GI50", "> 100 µM (inactive)"]
]}

----------
- System: SK-MEL-5
- protocol: NCI tumour cell line growth inhibition, 48 h
Calls of active or inactive are those of the source. Rule as the data show it: active = GI50 up to about 1.1 µM and inactive = higher.

{"columns": ["compound", "GI50"],
 "data": [
  ["CCOP(=O)(OCC)C(Nc1cccc(F)c1)c1ccc(N(C)C)cc1 (stereo not drawn)", "71 µM (inactive)"],
  ["O=C(CBr)c1ccc2cc(Br)c3ccccc3c2c1", "14.3 µM (inactive)"],
  ["[O-][Cl+3]([O-])([O-])[O-].[O-][Cl+3]([O-])([O-])[O-].c1ccn2c(N3CCCC3)[n+]3c4ccccc4n4c(N5CCCC5)[n+]5ccccc5c4c3c2c1", "22.2 µM (inactive)"],
  ["Nc1ncnc2c(C3OC(CO)C(O)C3O)scc12 (stereo not drawn)", "0.346 µM (active)"],
  ["CC(=O)Oc1ccc(/C=C/C(=O)NCCOC(=O)/C=C/c2ccc(OC(C)=O)c(OC(C)=O)c2)cc1OC(C)=O", "17.6 µM (inactive)"],
  ["C=C1C(=O)O[C@@H]2[C@@H]3O[C@@H](C[C@@H]13)[C@](C)(O)CC/C=C(\\C)CCC[C@@H]2C", "16.4 µM (inactive)"],
  ["COC1(OC)C2(Cl)C3=CCCC=C3C1(Cl)C(Cl)=C2Cl", "14.3 µM (inactive)"],
  ["Cc1ccc2c(c1)CC1(Cc3cccc(C)c3C1=O)C2=O (stereo not drawn)", "32.3 µM (inactive)"]
]}
